Literature-derived log10(IC50) for Prostaglandin G/H synthase 2 (Homo sapiens) follows.
experimental-readout: log10(IC50) (log10 of the value in nM)

1. O=C1CC(c2ccc(O)cc2O)Oc2cc(O)cc(O)c21 (stereo not given)    4.67
2. CCc1ccc(Nc2cnccc2NS(C)(=O)=O)cc1    3.91
3. COc1ccc2c(c1)c(CC(=O)N[C@@H](CO)C(C)C)c(C)n2C(=O)c1ccc(Cl)cc1    2.04
4. Cc1cc2cc(-c3ccc(C(C)C(=O)O)cc3)ccc2[nH]1 (stereo not given)    2.36
5. Cc1nc(-c2ccc(S(N)(=O)=O)cc2)c(-c2ccccc2)s1    1.46
6. CCOc1cc(OCC)cc(-c2ccc(C(C)C(=O)O)cc2F)c1 (stereo not given)    2.00
7. CC[C@@H](C)NC(=O)Cc1c(C)n(C(=O)c2ccc(Cl)cc2)c2ccc(OC)cc12    2.11
8. CS(=O)(=O)c1ccc(C2=C(c3ccccc3)C(=O)NC2=O)cc1    4.24
9. CS(=O)(=O)c1ccc(-n2cc(-c3ccc(F)cc3)nn2)cc1    2.32
10. O=C(NCCc1c[nH]c2ccccc12)c1ccccc1Nc1cccnc1    4.37
11. Cc1cccc(-c2cc(COC(=O)COc3cc(O)c4c(=O)cc(-c5ccccc5)oc4c3)nn2-c2ccccc2)c1    3.13
12. O=C(O)C1=Cc2cc(Cl)cc(-c3ccc(Cl)cc3)c2OC1C(F)(F)F (stereo not given)    1.32
13. COc1ccc2oc(=O)cc(CSc3nnc(CSc4nc5cc(Cl)ccc5o4)o3)c2c1    4.96
14. CC1CCN([C@H](c2ccc(F)cc2)c2ccc([C@@H](C)C(=O)O)cc2-c2ccc(C(F)(F)F)cc2)CC1    4.43
15. COc1ccc2c(c1F)C[S+]([O-])c1c(C(F)(F)F)nn(-c3ccc(S(N)(=O)=O)cc3)c1-2 (stereo not given)    3.18
16. NS(=O)(=O)c1ccc(-c2c(-c3ccccc3)noc2CCF)cc1    0.90
17. CN(C)c1ccc(-c2cnnn2-c2ccc(S(C)(=O)=O)cc2)cc1    2.56
18. COc1ccc(N2C(=O)CSC2c2ccc(S(C)(=O)=O)cc2)cc1 (stereo not given)    2.20
19. Cc1c(CC(=O)O)c2ccccc2n1C(=O)c1ccc(Cl)cc1    4.59
20. O=c1cc(CSc2nnc(CSc3nc4ccccc4o3)o2)c2c(ccc3ccccc32)o1    4.72
21. Nc1ccc(-c2cc(Cl)cc3c2OC(C(F)(F)F)C(C(=O)O)=C3)cc1 (stereo not given)    3.26
22. NS(=O)(=O)c1ccc(-n2nc(C(=O)NCCN3CCOCC3)cc2-c2ccc(F)cc2)cc1    2.20
23. CS(=O)(=O)Nc1ccncc1NC1CCCCC1    3.39
24. COc1ccc(-c2cc(COC(=O)COc3cc(O)c4c(=O)cc(-c5ccccc5)oc4c3)nn2-c2ccc(C)cc2)cc1    2.36
25. COc1ccc(-c2noc(CBr)c2-c2ccc(OC)cc2)cc1    2.26
